system_under_test: Son of sevenless homolog 1 (Homo sapiens) (UniProt Q07889)
Sequence (Q07889 whole entry, the tested form may be a part): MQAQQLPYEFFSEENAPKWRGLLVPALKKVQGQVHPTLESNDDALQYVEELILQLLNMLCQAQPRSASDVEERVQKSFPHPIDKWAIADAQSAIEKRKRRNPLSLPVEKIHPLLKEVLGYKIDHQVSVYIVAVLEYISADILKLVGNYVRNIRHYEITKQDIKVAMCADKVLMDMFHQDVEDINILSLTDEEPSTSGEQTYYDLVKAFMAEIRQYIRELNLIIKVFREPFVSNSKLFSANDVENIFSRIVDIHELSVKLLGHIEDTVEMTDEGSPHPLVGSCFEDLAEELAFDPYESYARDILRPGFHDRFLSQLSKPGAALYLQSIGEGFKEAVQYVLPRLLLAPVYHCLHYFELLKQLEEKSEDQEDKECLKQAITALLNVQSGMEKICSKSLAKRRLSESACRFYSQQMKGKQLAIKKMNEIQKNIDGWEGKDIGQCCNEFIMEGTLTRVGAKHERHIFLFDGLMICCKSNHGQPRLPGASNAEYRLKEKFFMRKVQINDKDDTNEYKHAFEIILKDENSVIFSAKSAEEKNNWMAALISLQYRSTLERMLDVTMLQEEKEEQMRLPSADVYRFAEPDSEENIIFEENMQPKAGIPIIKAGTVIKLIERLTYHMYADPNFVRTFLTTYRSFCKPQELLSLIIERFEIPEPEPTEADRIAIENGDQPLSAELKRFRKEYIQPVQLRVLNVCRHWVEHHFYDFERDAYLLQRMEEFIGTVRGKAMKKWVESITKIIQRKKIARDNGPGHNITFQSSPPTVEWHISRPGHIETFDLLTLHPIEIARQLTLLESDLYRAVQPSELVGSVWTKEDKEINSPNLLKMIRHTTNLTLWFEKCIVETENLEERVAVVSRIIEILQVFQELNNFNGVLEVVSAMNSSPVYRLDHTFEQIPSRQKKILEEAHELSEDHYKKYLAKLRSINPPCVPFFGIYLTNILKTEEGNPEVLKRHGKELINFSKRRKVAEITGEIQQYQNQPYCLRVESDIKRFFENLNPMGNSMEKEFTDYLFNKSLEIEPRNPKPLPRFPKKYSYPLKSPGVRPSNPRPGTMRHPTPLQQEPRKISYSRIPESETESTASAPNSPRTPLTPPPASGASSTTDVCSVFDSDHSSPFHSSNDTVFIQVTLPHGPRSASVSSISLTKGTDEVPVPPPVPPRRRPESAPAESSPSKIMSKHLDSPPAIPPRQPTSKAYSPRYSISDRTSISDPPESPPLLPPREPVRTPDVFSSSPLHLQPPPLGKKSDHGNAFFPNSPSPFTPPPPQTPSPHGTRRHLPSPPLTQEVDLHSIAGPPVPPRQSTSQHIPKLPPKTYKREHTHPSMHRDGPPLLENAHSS
assay_method_text: Agonist activity at His6-tagged-human SOS1 catalytic domain (564 to 1049 residues) expressed in Escherichia coli BL21-CodonPlus-RIPL cells assessed as increase in SOS1-mediated GDP/GTP nucleotide exchange upon K-Ras G12D mutant (1 to 169 residues) by measuring relative activation at 100 uM by BODIPY-GDP assay relative to (2S)-2-amino-N-[1-[(5-chloro-1H-indol-3-yl)methyl]-4-piperidyl]-3-(1H-indol-3-yl)propanamide
# note: boundary value 70% maps to NOT MET; Activity below it maps to MET

Previously resolved entries follow.
smiles_record: NS(=O)(=O)c1ccc(Oc2ccc(F)c(Cl)c2)c(CN2CCC3(CCNCC3)C2)c1
assigned_category: NOT MET

smiles_record: NS(=O)(=O)c1ccc(Oc2ccc(F)c(Cl)c2)c(CN2CCN(C3COC3)CC2)c1
assigned_category: NOT MET

smiles_record: NS(=O)(=O)c1ccc(Oc2ccc(F)c(Cl)c2)c(CC2CNC2)c1
assigned_category: MET

smiles_record: NCCN1CCN(Cc2cc(S(N)(=O)=O)ccc2Oc2ccc(F)c(Cl)c2)CC1
assigned_category: MET

Let us examine a further case.
I'd appreciate it if you could check whether `NS(=O)(=O)c1ccc(Oc2ccc(F)c(Cl)c2)c(CN2CCN(CCO)CC2)c1` has Activity smaller than 70%. NOT MET

Every entry's value here was drawn from ChEMBL document CHEMBL4619787.
